- Test system: A549 NSCLC
- assayProcedure: NCI tumour cell line growth inhibition, 48 h; in the data active = GI50 below about 0.43 µM; inactive = the rest
Field 'call' accepts active, inactive

Field: example entries. Status: answers known.
CCOC(=O)C(=Cc1cccc(Cl)c1)C(=O)OCC
inactive
O=c1[nH]c(=O)n(C2CC(O)C(CO)O2)cc1CO (stereo not drawn)
inactive
Cc1ccc(/C=C/c2c(C(=O)/C=C/c3ccc(C(F)(F)F)cc3)c(C)nc3ccccc23)cc1
inactive
CS(=O)(=O)CCCn1c(=O)c(Oc2ccc(F)cc2F)cc2cnc(NC3CCOCC3)nc21
inactive

// next entry
Could you check what this test reported for `Nc1c(C(=O)Nc2cccc(Br)c2)sc2nc3c(cc12)C(=O)CCC3` ?
inactive
